Item-by-item account of VNA titer
# Subject of test: HA of H1N1 A/Puerto Rico/8/34-MA (influenza A virus)
# Protocol description: cell-based or functional assay

Consider the following illustrative entries.
SD1076 (VHH) VHH: EVQLVESGGGLVQAGGSLTLSCAGSGFAFSIATMGWYRQAPGKQRELVADITSGGSTNYADSVKGRFTISRDNAKNTVYLQMNSLKPEDTAVYYCNADSLATGWRQYSYWGKGTQVTVSS :: 8.7 nM
SD1025 (VHH) VHH: EVQLVESGGGLVQAGGSLRLSCAASGRTYAMAWFRQAPGKEREFVAHINALGTRTYYSDSVQGRFTISRDNAKNTEYLQMNSLKPEDTAVYYCAAGGQWRAAPVADAAQYDFWGQGTQVTVSS :: > 1000 nM

Please report VNA titer for the following binder: SD1034 (VHH) VHH: EVQLVESGGGLVQAGGSLRLSCAASGTIFGIRVNTMGWYRQAPGEQRELVATITRSGGTNYADSVKDRFTISGDFAKDTVYLQMMHLKPEDTAVYYCNGRWALTDYWGQGTQVTVSS
756 nM
